- System: U251 CNS
assay metric: GI50

Check out these entries, answers already filled in.
COc1ccc(C2CC(c3cccc(OC)c3)=NN2C(=O)c2cc(OC)c(OC)c(OC)c2)cc1 (stereo not given) = 3.04 µM
C[n+]1cc2cc3c(cc2c2ccccc21)OCO3 = 1.33 µM
CC(=O)Oc1ccccc1C(=O)NCCC[Se]C#N = 1.6 µM
O=C([CH-]C(=O)c1ccccc1)c1ccccc1.[CH3-].[CH3-].[CH3-].[Sn+4] = 6.87 µM

Proceed to the following item.
Item: OCC#CCCCCOCC#Cc1ccccc1C#CCOCCCCC#CCO | System: U251 CNS | GI50: 17.2 µM

----------
List of GI50 tested on 786-0 renal.

Worked cases, answers included:
COC(=O)c1ccc(NC(N)=NCC(C)(C)COc2ccc(C(F)(F)F)cc2)nc1 = 1.46 µM
COc1ccccc1Nc1nc2ccccc2c2occc12 = 15.3 µM
CCOc1ccc(NC(=O)c2cc3ccccc3cc2O)cc1 = 28.4 µM

For record CCOC(=O)Nc1ccc(C(=O)/C=C/c2ccccc2)cc1 the listed GI50 is 26.3 µM

// sample C[C@@H]1CC[C@@H]2[C@@H]1[C@H](OC(=O)c1ccc3ccccc3c1)[C@]1(C3CCCCC3)C[C@@H](OC(=O)CO)[C@@]2(C)O1 , its GI50 was 5.41 µM

# GI50 (compound: NC(=S)N/N=C/c1ccc(OC(=O)COc2ccccc2)cn1 ) is 3.89 µM

----------
Recorded TGI for the following molecules
- System: SNB-75 CNS
- assay summary: NCI tumour cell line growth inhibition, 48 h

For orientation, consider the following solved cases.
CNC(=O)OCc1nc(N=[N+]=[N-])n(C)c1COC(=O)NC = > 100 µM
N#Cc1nc(-c2ccc(-c3nc(C#N)c(N)o3)cc2)oc1N = > 10 µM
CC(=O)C(N=NC1CCC(S(=O)(=O)NB2N=CS2)CC1)C(=O)Nc1ccccc1C (stereo unspecified) = 33.8 µM
C=C1C(=O)O[C@H]2[C@H]1CC/C(COC(=O)C(=O)c1c[nH]c3ccc(Cl)cc13)=C\CC[C@@]1(C)O[C@@H]21 = 3.87 µM
O=C1COc2cc3c(cc2N1)SCCC(=O)N3 = > 100 µM
COc1ccc(-c2cc(=O)c3ccc(F)cc3[nH]2)cc1 = > 100 µM

Shifting focus to the molecule that follows.
TGI for NC1=NCC(c2ccccn2)C1c1ccc(F)cc1 (stereo unspecified) is > 100 µM

----------
- Test system: SF-295 CNS
- assay summary: NCI tumour cell line growth inhibition, 48 h
Where a SMILES comes first, the peptide text is derived from it. The star is where a group is joined. Boc = CC(C)(C)OC(=O)*; Bn = c1ccc(C*)cc1
TGI overview

Use the examples below as a reference point.
C[C@@H]1CC[C@@H]2[C@@H]1[C@H](OC(=O)c1ccc3ccccc3c1)[C@]1(C3CCCCC3)C[C@@H](OC(=O)CO)[C@@]2(C)O1 = 25.3 µM
COc1cc(/C=C2\NC(=S)C3Cc4c(OC)c(C)c(OC)c(OC)c4C2N3C)c(OC)c(C)c1OC (configuration not stated) = > 100 µM
COC(=O)C(CC(C)C)NC(=O)CNC(=O)C(Cc1ccc(OCc2ccccc2)cc1)NC(=O)C(COCc1ccccc1)NC(=O)OC(C)(C)C (configuration not stated) (Boc-S(Bn)Y(Bn)GL-OMe; configuration not given here) = > 100 µM
Cc1cccc(C)c1NC(=O)CCCC(=O)C(C#N)c1ccc(Cl)cc1 (configuration not stated) = > 100 µM
NCCn1cnc2nc(NC(=O)c3ccccc3)[nH]c(=O)c21 = > 100 µM
COc1ccc(C(=O)C/C(=N/NC(N)=S)C(=O)Nc2ccccc2)cc1 = > 100 µM

Observed TGI on SF-295 CNS, entry Cc1cc(Cl)cc2c1NC(=O)C2(O)CC(=O)c1ccc(F)cc1 (configuration not stated) , equals > 100 µM

SF-295 CNS data for O=c1cc(-c2ccc3ccccc3c2)[nH]c2ncccc12 ; its TGI: > 100 µM

GET /values?item= COc1ccc2c(c1)C1c3ccccc3CCN1CCC2 (configuration not stated) &system= SF-295 CNS returns TGI: 54 µM

Let me check: CN1C(=O)C(C#N)C2C[C@@]1(C)Oc1ccccc12 (some centres not stated) , system SF-295 CNS, measured TGI is > 100 µM

Per the reported SF-295 CNS data, CC1CN=C(NS(=O)(=O)c2cc(C(=O)Nc3ccccc3)c(Cl)cc2S)NN1 (configuration not stated) has TGI of > 100 µM

Data provenance: PubChem BioAssay (NCI)
